biological target: CDK2 (Homo sapiens); construct: endogenous in cells; host or cells: MDA-MB-231; assay: CDK protein degradation activity (Western blotting), CDK2; format: cell-based; details: MDA-MB-231 cells, 0.1 μM, 16 hours, Western blot
Quantity kind: Enzyme degradation CDK2 (% remaining) @ 0.1 μM (%)

Recorded results for 2 compounds are shown here.
INSERT INTO measurements (compound, endpoint_value) VALUES
  ('O=C1CC[C@H](N2C(=O)c3cc(F)c(N4CCC(C(=O)N5CCC(CN6CCN(c7ccc(Nc8ncnc9c8ncn9[C@H]8C[C@@H](NC(=O)c9c(Cl)cccc9Cl)C8)cc7)CC6)CC5)CC4)cc3C2=O)C(=O)N1 [Compound 462]', 30),
  ('Cc1cccc(C(=O)NC2CC(n3cnc4c(NCc5cccc(N6CCN(CC7CCN(C(=O)CNc8cccc9c8C(=O)N([C@H]8CCC(=O)NC8=O)C9=O)CC7)CC6)c5)ncnc43)C2)n1 (some centres unmarked) [Compound 134]', 60);

I = O=C1CC[C@H](N2C(=O)c3ccc(OCC(=O)N4CCC(CN5CCC(c6ccc(Nc7ncnc8c7ncn8C7CC(NC(=O)Cc8ccccc8)C7)cc6)CC5)CC4)cc3C2=O)C(=O)N1 (some centres unmarked) [Compound 289]
II = Cc1cccc(C(=O)NC2CC(n3cnc4c(NCc5ccc(OCC6CCN(c7ccc8c(c7)C(=O)N([C@H]7CCC(=O)NC7=O)C8=O)CC6)cc5)ncnc43)C2)n1 (some centres unmarked) [Compound 110]
Q) Lowest Enzyme degradation CDK2 (% remaining) @ 0.1 μM? choose I or II Please indicate the selected item by its label.
A) I

I = O=C1CC[C@H](N2C(=O)c3ccc(N4CC(C(=O)N5CCC(CCN6CCN(c7ccc(Nc8ncnc9c8ncn9C8CC(NC(=O)Cc9ccccc9)C8)cc7)CC6)CC5)C4)cc3C2=O)C(=O)N1 (some centres unmarked) [Compound 328]
II = O=C1CC[C@H](N2C(=O)c3ccc(N4CCN(CCCC5CCN(c6ccc(Nc7ncnc8c7ncn8C7CC(NC(=O)Cc8ccccc8)C7)cc6)CC5)CC4)cc3C2=O)C(=O)N1 (some centres unmarked) [Compound 347]
Q) Of the two listed items, I and II , which carries the larger Enzyme degradation CDK2 (% remaining) @ 0.1 μM figure? Please indicate the selected item by its label.
A) I
(I: 40%, II: 10%)

I = Cc1cccc(C(=O)N[C@H]2C[C@@H](n3cnc4c(Nc5ccc(N6CCN(CCC7CCN(c8ccc9nnn([C@H]%10CCC(=O)NC%10=O)c(=O)c9c8)CC7)CC6)cc5)ncnc43)C2)n1 [Compound 382]
II = O=C1CC[C@H](N2C(=O)c3cccc(OCC(=O)N4CCN(CC5CCN(c6ccc(Nc7ncnc8c7ncn8C7CC(NC(=O)Cc8ccccc8)C7)cc6)CC5)CC4)c3C2=O)C(=O)N1 (some centres unmarked) [Compound 326]
Q) Lowest Enzyme degradation CDK2 (% remaining) @ 0.1 μM? choose I or II Please indicate the selected item by its label.
A) II

A = Cc1cccc(C(=O)N[C@H]2C[C@@H](n3cnc4c(Nc5ccc(N6CCN(C7CC8(CCN(c9cc%10c(cc9F)C(=O)N([C@H]9CCC(=O)NC9=O)C%10=O)CC8)C7)CC6)cc5)ncnc43)C2)n1 [Compound 385]
B = O=C1CC[C@H](N2C(=O)c3cccc(N4CCN(CCCN5CCN(c6ccc(Nc7ncnc8c7ncn8C7CC(NC(=O)Cc8ccccc8)C7)cc6)CC5)CC4)c3C2=O)C(=O)N1 (some centres unmarked) [Compound 238]
C = Cc1cccc(C(=O)NC2CC(n3cnc4c(NC5CCN(C(=O)CC6CCN(C(=O)CNc7ccc8c(c7)C(=O)N([C@H]7CCC(=O)NC7=O)C8=O)CC6)CC5)ncnc43)C2)n1 (some centres unmarked) [Compound 51]
Q) Descending sort on Enzyme degradation CDK2 (% remaining) @ 0.1 μM required. Reply with the item labels sorted in the order that was asked for.
A) B, C, A
(B: 100%, C: 70%, A: 40%)

P = Cc1cccc(C(=O)N[C@H]2C[C@@H](n3cnc4c(NCCC5CCN(CC6CCN(C(=O)CNc7ccc8c(c7)C(=O)N(C7CCC(=O)NC7=O)C8=O)CC6)CC5)ncnc43)C2)n1 (some centres unmarked) [Compound 125]
Q = O=C1CC[C@@H](c2ccc(OCC(=O)N3CCC(OCCN4CCN(c5ccc(Nc6ncnc7c6ncn7C6CC(NC(=O)Cc7ccccc7)C6)cc5)CC4)CC3)cc2)C(=O)N1 (some centres unmarked) [Compound 250]
Q) Of the two listed items, P and Q , which carries the larger Enzyme degradation CDK2 (% remaining) @ 0.1 μM figure? Please indicate the selected item by its label.
A) Q
(Q: 60%, P: 30%)
